tested on: Staphylococcus aureus; experiment: Antimicrobial activity against methicillin-sensitive Staphylococcus aureus ATCC 29213 assessed as reduction in microbial growth after 24 hrs by microdilution method; assay type: functional
Task for the reader: assign each of the following molecules its reported MIC.
Write down the numeric answer in µg/mL and omit the unit.

Quick check: MIC of `C/C=C/[C@@H]1C=C[C@@H]2C[C@H](C)CC[C@H]2[C@]1(C)/C(O)=C1\C(=O)N[C@@H]([C@H](C)O)C1=O` ?
2

Suppose we examine the molecule `C/C=C/[C@@H]1C=C[C@@H]2C[C@H](C)CC[C@H]2[C@]1(C)/C(O)=C1\C(=O)N[C@@H]([C@@H](C)O)C1=O` ; what MIC value has been reported?
8

Which MIC value is on record for `C/C=C1\NC(=O)C(C(=O)[C@@]2(C)[C@@H]3CC[C@@H](C)C[C@H]3C=C[C@H]2/C=C/C)=C1O` ?
2

Data request, read-out MIC, for `C/C=C1\NC(=O)C(C(=O)[C@@]2(C)[C@@H]3CC[C@@H](CO)C[C@H]3C=C[C@H]2/C=C/C)=C1O`
64

Dear colleague, I am looking for the recorded MIC of the following molecule: `Cc1onc(-c2ccccc2)c1C(=O)N[C@@H]1C(=O)N2[C@@H]1SC(C)(C)[C@@H]2C(=O)O`
0.25

The measured values listed here are drawn from ChEMBL document CHEMBL4699552.
